Assay: Selectivity index, ratio of IC50 for rat L6 cells to IC50 for Plasmodium falciparum K1
Assay type: toxicity, cell-based
Details: read-out: Ratio IC50
Readout Kind: selectivity ratio

Worked set:
For record `COc1ccc(C(=N)NC(C)C)cc1-n1cc(-c2ccc(C(=N)NC(C)C)cc2)nn1` the listed selectivity ratio is > 887

For record `COc1ccc(C2=NCCN2)cc1-c1cn(-c2cccc(C3=NCCN3)c2)nn1.Cl.Cl` the listed selectivity ratio is > 12600

For record `Cl.Cl.N=C(N)c1cccc(-n2cc(-c3cc(C(=N)N)ccc3O)nn2)c1` the listed selectivity ratio is > 3780

// each compound listed below needs its selectivity ratio
1. Oc1cc(C2=NCCN2)ccc1-n1cc(-c2cccc(C3=NCCN3)c2)nn1
2. COc1cc(C2=NCCN2)ccc1-c1cn(-c2cccc(C3=NCCN3)c2)nn1
3. Oc1cc(C2=NCCN2)ccc1-c1cn(-c2cccc(C3=NCCN3)c2)nn1
4. COc1ccc(C2=NCCN2)cc1-n1cc(-c2ccc(C3=NCCN3)cc2)nn1

1: > 1180; 2: > 2690; 3: > 11400; 4: > 7730

// each compound listed below needs its selectivity ratio
1. COc1cc(C(=N)NC(C)C)ccc1-c1cn(-c2ccc(C(=N)NC(C)C)cc2)nn1
2. Cl.Cl.N=C(N)c1ccc(-n2cc(-c3ccc(C(=N)N)cc3O)nn2)cc1
3. Cl.Cl.c1cc(-c2cn(-c3ccc(C4=NCCN4)cc3)nn2)ccc1C1=NCCN1
4. COc1ccc(C(=N)N)cc1-c1cn(-c2cccc(C(=N)N)c2)nn1

> 12800
24600
50500
> 8330

====

For each record, write down the corresponding pIC50.
Tested on: Leishmania donovani
Test: Antileishmanial activity against Leishmania donovani MHOM/SD/62/1S-CL2D
Format: functional, organism-based
Numbers only, as −log10 of the molar value.

For record `Cl.Cl.N=C(N)c1cccc(-n2cc(-c3cc(C(=N)N)ccc3O)nn2)c1` the listed pIC50 is 4.70

Turning now to a further compound:
For record `COc1ccc(C(=N)N)cc1-c1cn(-c2ccc(C(=N)N)cc2)nn1.Cl.Cl` the listed pIC50 is 5.37

====

For each record, write down the corresponding pIC50.
Test system: Leishmania donovani
Assay: Antileishmanial activity against Leishmania donovani MHOM/SD/62/1S-CL2D
Type: functional, organism-based
One number for each entry, as −log10 of the molar value.

Worked set:
For record `Cl.Cl.Oc1cc(C2=NCCN2)ccc1-c1cn(-c2ccc(C3=NCCN3)cc2)nn1` the listed pIC50 is 4.62

For record `Cl.Cl.N=C(N)c1ccc(-n2cc(-c3cccc(C(=N)N)c3)nn2)cc1` the listed pIC50 is 4.92

Others:
For record `Cl.Cl.N=C(N)c1ccc(-c2cn(-c3cccc(C(=N)N)c3)nn2)cc1` the listed pIC50 is 4.77

====

Test system: Plasmodium falciparum
Experiment: Antiplasmodial activity against chloroquine-resistant Plasmodium falciparum K1 infected in human erythrocytes after 48 hrs assessed as [3H]hypoxanthine incorporation by liquid scintillation counting
Type: functional, organism-based
For each record, write down the corresponding IC50.
Give bare numbers, in nM.

For record `COc1cc(C(=N)N)ccc1-c1cn(-c2ccc(C(=N)N)cc2)nn1.Cl.Cl` the listed IC50 is 2

For record `CC(C)NC(=N)c1cccc(-c2cn(-c3cc(C(=N)NC(C)C)ccc3O)nn2)c1` the listed IC50 is 739

For record `COc1cc(C(=N)NC(C)C)ccc1-c1cn(-c2ccc(C(=N)NC(C)C)cc2)nn1` the listed IC50 is 13

For record `COc1cc(C2=NCCN2)ccc1-n1cc(-c2ccc(C3=NCCN3)cc2)nn1` the listed IC50 is 17

Turning now to a further compound:
For record `CC(C)NC(=N)c1ccc(-c2cn(-c3ccc(C(=N)NC(C)C)cc3O)nn2)cc1` the listed IC50 is 800
